From: paper PMC6661766

- Test system: B. cereus
- Assay remarks: Antimicrobial serial tube dilution, MIC and MBC
- Type: cell-based, Bacillus cereus MTCC 1305
- Condition label: Bacillus cereus, 24 h, read-out: B. cereus MIC
The threshold is 30 µg/mL. Values of MIC beneath it are tagged t; values meeting or exceeding it are tagged f.

[[record]]
compound = "CC(=O)c1ccc(N=Nc2c(O)cccc2O)cc1"
label = "f"

[[record]]
compound = "O=C(/C=C\\c1ccco1)c1ccc(N=Nc2c(O)cccc2O)cc1"
label = "t"

[[record]]
compound = "O=C(/C=C\\c1cc(Br)ccc1O)c1ccc(N=Nc2ccc([N+](=O)[O-])cc2Cl)c(O)c1"
label = "t"

[[record]]
compound = "CO/N=C(\\C(=O)N[C@@H]1C(=O)N2C(C(=O)O)=C(COC(C)=O)CS[C@H]12)c1csc(N)n1 [Cefotaxime, cefotaxime, reference compound]"
label = "t"

[[record]]
compound = "O=C(/C=C/c1ccc(Cl)cc1Cl)c1ccc(O)c(N=Nc2cccc(Cl)c2Cl)c1"
label = "f"

[[record]]
compound = "O=Cc1ccc(/C=C\\C(=O)c2ccc(N=Nc3c(O)cccc3O)cc2)cc1"
label = "f"

[[record]]
compound = "CC(=O)c1ccc(O)c(N=Nc2cccc(Cl)c2Cl)c1"
label = "f"

[[record]]
compound = "O=C(/C=C\\c1ccccc1[N+](=O)[O-])c1cccc(N=Nc2cccc(Cl)c2Cl)c1O"
label = "f"

[[record]]
compound = "O=C(O)c1cn(C2CC2)c2cc(N3CCNCC3)c(F)cc2c1=O [CIP, ciprofloxacin, reference compound]"
label = "t"

